Listed here: items and their measured Ki or IC50 activity class.
experimentalTarget: human H4 receptor (Homo sapiens, UniProt Q9H3N8)
Construct: expressed in transfected cells
Sequence (Q9H3N8 whole entry): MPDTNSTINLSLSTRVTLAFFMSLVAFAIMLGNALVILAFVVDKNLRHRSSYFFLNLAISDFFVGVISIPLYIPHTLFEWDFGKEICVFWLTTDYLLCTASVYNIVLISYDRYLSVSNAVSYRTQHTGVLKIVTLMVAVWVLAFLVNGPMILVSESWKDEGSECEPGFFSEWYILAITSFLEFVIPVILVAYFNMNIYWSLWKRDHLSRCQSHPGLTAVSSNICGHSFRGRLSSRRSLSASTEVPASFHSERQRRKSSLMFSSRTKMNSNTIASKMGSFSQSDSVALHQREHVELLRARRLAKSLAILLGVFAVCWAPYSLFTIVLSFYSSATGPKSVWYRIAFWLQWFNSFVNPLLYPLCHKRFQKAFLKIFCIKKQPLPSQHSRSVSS
experimentSummary: [3H]Histamine binding on membranes of CHO cells stably expressing human H4 receptor
measuredProperty: Ki or IC50 activity class

- CN1CCC(OC(c2cccc(CCCCNC(=N)NC(=O)OC(C)(C)C)c2)c2nc3ccccc3[nH]2)CC1 (centres unmarked) [Example 309]: < 0.3 µM
- CN1CCC(OC(c2cccc(SCCN)c2)c2nc3ccccc3[nH]2)CC1 (centres unmarked) [Example 249]: < 0.3 µM
- Cc1ccc(C(NC2CCN(C)CC2)c2nc3ccccc3s2)cc1 (centres unmarked) [Example 36]: < 0.3 µM
- CN1CCC(OC(c2cccc(SCCCCN)c2)c2nc3cc(F)c(F)cc3[nH]2)CC1 (centres unmarked) [Example 495]: < 0.03 µM
- CN1CCC(OC(c2cccc(OCCCN)c2)c2nc3ccccc3s2)CC1 (centres unmarked) [Example 311]: < 0.3 µM
- CN1CCC(OC(c2nc3ccccc3[nH]2)c2cc(C#CCCCN)ccc2F)CC1 (centres unmarked) [Example 442]: < 0.03 µM
- CN1CCC(OC(c2cccc(I)c2)c2nc3ccccc3s2)CC1 (single isomer, unassigned) [Example 117]: < 0.03 µM
- CN1CCC(OC(c2cccc(N3CCCC3CO)c2)c2nc3ccccc3s2)CC1 (centres unmarked) [Example 323]: < 1 µM

Origin of measurements: patent US8802664B2
